Kindly state CC50 at 72 h for each of the entries shown.
method_summary: Cytotoxicity against African green monkey Vero cells infected with Influenza A virus H3N2 after 72 hrs by MTT assay
Assay type: cell-based
measurement_context: chlorocebus sabaeus, read-out: TC50
Could you give the number and then its unit, please?

[
  {
    "mol": "COc1ccccc1CNc1ncnc(Cl)c1/C=N/O",
    "obs_value": "1.19 µg/mL"
  }
]

Next, consider the following compound.
Challenge: Which measured CC50 at 72 h value corresponds to CC(C)(C)c1ccc(CNc2ncnc(Cl)c2/C=N/O)cc1 ?
Response given: 0.48 µg/mL

---

method_summary: Selectivity index, ratio of TC50 against African green monkey Vero cells infected with Hepatitis B virus after 72 hrs by MTT assay to IC50 against Hepatitis B virus infected in African green monkey Vero cells assessed as inhibition of virus-induced cytopathogenic effect by microscopic analysis
Type: toxicity
measurement_context: read-out: Selectivity Index
Kindly state selectivity ratio at 72 h for each of the entries shown.
Numbers only.

[
  {
    "mol": "CC(C)(C)c1ccc(CNc2ncnc(Cl)c2/C=N/O)cc1",
    "obs_value": 17.9
  }
]

Next, consider the following molecule.
Challenge: Which measured selectivity ratio at 72 h value corresponds to COc1ccccc1CNc1ncnc(Cl)c1/C=N/O ?
Response given: 25.3

---

Kindly state CC50 at 72 h for each of the entries shown.
method_summary: Cytotoxicity against African green monkey Vero cells infected with Hepatitis C virus after 72 hrs by MTT assay
Format: cell-based
measurement_context: chlorocebus sabaeus, read-out: TC50
One number for each entry, in µg/mL.

[
  {
    "mol": "CC(C)(C)c1ccc(CNc2ncnc(Cl)c2/C=N/O)cc1",
    "unit_abbreviation": "µg/mL",
    "CC50 at 72 h": 19.3
  }
]

Next, consider the following molecule.
Challenge: Which measured CC50 at 72 h value corresponds to COc1ccccc1CNc1ncnc(Cl)c1/C=N/O ?
Response given: 32.4

---

method_summary: Selectivity index, ratio of TC50 against African green monkey Vero cells infected with Herpes simplex virus 1 after 72 hrs by MTT assay to IC50 against Herpes simplex virus 1 infected in African green monkey Vero cells assessed as inhibition of virus-induced cytopathogenic effect by microscopic analysis
Format: toxicity
measurement_context: read-out: Selectivity Index
So basically: selectivity ratio at 72 h at 4 or higher? That is True. Lower than 4? That is False.

Some solved entries appear below for comparison.
[
  {
    "compound": "CO/N=C/c1c(Cl)ncnc1NCc1ccccc1OC",
    "class_name": "True"
  },
  {
    "compound": "NC(=O)c1ncn([C@@H]2O[C@H](CO)[C@@H](O)[C@H]2O)n1 [RIBAVIRIN]",
    "class_name": "True"
  }
]

Challenge: Answer whether selectivity ratio at 72 h of O/N=C/c1c(Cl)ncnc1NCc1ccccc1 is greater than or equal to 4.
Response given: False

Challenge: Answer whether selectivity ratio at 72 h of Nc1ccc(CNc2ncnc(Cl)c2/C=N/O)cc1 is greater than or equal to 4.
Response given: True

Challenge: Answer whether selectivity ratio at 72 h of O/N=C/c1c(Cl)ncnc1NCc1ccc(Cl)cc1 is greater than or equal to 4.
Response given: True

Challenge: Answer whether selectivity ratio at 72 h of COc1ccc(Cn2c(=O)nc(N)c3c(OC)nc(N)nc32)cc1 is greater than or equal to 4.
Response given: True

Challenge: Answer whether selectivity ratio at 72 h of COc1ccccc1CNc1ncnc(Cl)c1/C=N\O is greater than or equal to 4.
Response given: False

Challenge: Answer whether selectivity ratio at 72 h of Cc1ccc(CNc2ncnc(Cl)c2/C=N/O)cc1 is greater than or equal to 4.
Response given: True

Challenge: Answer whether selectivity ratio at 72 h of Nc1ncn([C@H]2O[C@@H](CO)[C@H](O)[C@@H]2O)c2nc(=O)[nH]c(=O)c1-2 is greater than or equal to 4.
Response given: False

Challenge: Answer whether selectivity ratio at 72 h of C[C@H]1O[C@@H](n2cnc(N)c3c(=O)[nH]c(=O)nc2-3)[C@H](O)[C@@H]1O is greater than or equal to 4.
Response given: False

Challenge: Answer whether selectivity ratio at 72 h of COc1ccccc1CCNc1ncnc(Cl)c1/C=N/O is greater than or equal to 4.
Response given: True

Cited source for all entries: ChEMBL document CHEMBL4340503
